B1: IQUB (parent)
chain: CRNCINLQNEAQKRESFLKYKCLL

# Variants of: B1
# protocol_summary: protein stability index of a GFP-peptide fusion (GPS, HEK-293T) (PSI 1-6); higher = more stable;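 note: lentivirally expressed fusions sorted by FACS into six bins by GFP to DsRed ratio, PSI derived from sequencing read proportions per bin multiplied by bin number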
# run_conditions: c terminus: a fixed tail appended
Kindly state protein stability index for each of the entries shown.
One number for each entry.

State recorded protein stability index for all listed variants.
1. CRNCINLQLEAQKRESFLKYKCLL [N9L]
2. CRNCINLQNEAQKRESFLGYKCLL [K19G]
3. CRNCINLQNEAQKRESFLKYKCWL [L23W]
4. CRNCINLQNEAQKRESFPKYKCLL [L18P]
5. CRDCINLQNEAQKRESFLKYKCLL [N3D]

1: 2.12; 2: 2.2; 3: 2.21; 4: 2.11; 5: 1.92

State recorded protein stability index for all listed variants.
1. CRNCINLQNEAQKRESFLKYKCLR [L24R]
2. CRNCINLQNEAQKRESFAKYKCLL [L18A]
3. CRNCKNLQNEAQKRESFLKYKCLL [I5K]
4. CRNCINLQNEAQKRESDLKYKCLL [F17D]
5. CRNAINLQNEAQKRESFLKYKCLL [C4A]

[1.82, 1.57, 1.45, 2.45, 2.02]

Please look up its protein stability index: SRNCINLQNEAQKRESFLKYKCLL [C1S]
1.9

These entries and their values trace back to the supplement of paper PMC10567573.
